FYI, the data here is from ChEMBL document CHEMBL1131934.

# STUDY SYSTEM: B2 bradykinin receptor (Homo sapiens)
# Sequence (P30411 whole entry): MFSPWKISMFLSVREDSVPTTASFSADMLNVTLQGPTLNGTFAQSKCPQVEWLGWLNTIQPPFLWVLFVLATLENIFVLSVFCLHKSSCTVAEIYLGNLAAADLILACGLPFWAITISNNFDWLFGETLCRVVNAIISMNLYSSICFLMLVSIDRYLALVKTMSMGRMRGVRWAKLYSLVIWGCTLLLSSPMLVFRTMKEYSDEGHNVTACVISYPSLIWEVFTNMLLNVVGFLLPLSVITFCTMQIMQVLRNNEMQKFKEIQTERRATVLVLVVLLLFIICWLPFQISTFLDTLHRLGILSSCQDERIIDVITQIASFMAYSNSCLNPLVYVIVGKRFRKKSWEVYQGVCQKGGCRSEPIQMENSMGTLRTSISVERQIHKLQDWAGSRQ
# TEST: Binding affinity towards human bradykinin B2 receptor (membranes from Cos-7 cells expressing human B2 receptor) using [3H]-BK as radioligand
# Type: cell membranes
Reported Ki is given for each of the following molecules.

[
  {
    "MOLECULE": "O=C(O)CN1C(=O)C(Cc2ccccc2)N=C(c2ccccc2)c2ccccc21 (stereo not drawn)",
    "STUDY SYSTEM": "B2 bradykinin receptor (Homo sapiens)",
    "QUANTITY KIND": "Ki",
    "VALUE REPORTED": "> 100 µM"
  },
  {
    "MOLECULE": "N=C(N)NCCCCN1C(=O)C(Cc2ccccc2)N=C(c2ccccc2)c2ccccc21 (stereo not drawn)",
    "STUDY SYSTEM": "B2 bradykinin receptor (Homo sapiens)",
    "QUANTITY KIND": "Ki",
    "VALUE REPORTED": "21.3 µM"
  },
  {
    "MOLECULE": "O=C1Nc2ccccc2C(c2ccccc2)=NC1Cc1ccccc1 (stereo not drawn)",
    "STUDY SYSTEM": "B2 bradykinin receptor (Homo sapiens)",
    "QUANTITY KIND": "Ki",
    "VALUE REPORTED": "> 100 µM"
  },
  {
    "MOLECULE": "NC(N)=Nc1cccc(CN2C(=O)[C@H](Cc3ccccc3)N=C(c3ccccc3)c3ccccc32)c1",
    "STUDY SYSTEM": "B2 bradykinin receptor (Homo sapiens)",
    "QUANTITY KIND": "Ki",
    "VALUE REPORTED": "15.8 µM"
  },
  {
    "MOLECULE": "Nc1cccc(CN2C(=O)C(Cc3ccccc3)N=C(c3ccccc3)c3ccccc32)c1 (stereo not drawn)",
    "STUDY SYSTEM": "B2 bradykinin receptor (Homo sapiens)",
    "QUANTITY KIND": "Ki",
    "VALUE REPORTED": "> 100 µM"
  }
]

So what's the measured Ki for this one? NC(N)=Nc1cccc(CN2C(=O)C(Cc3ccccc3)N=C(c3ccccc3)c3ccccc32)c1 (stereo not drawn)
8.9 µM

Now give it for N=C(N)Nc1ccc(N2C(=O)C(Cc3ccccc3)N=C(c3ccccc3)c3ccccc32)cc1 (stereo not drawn) too.
9.2 µM

Now give it for N=C(N)Nc1cccc(CN2C(=O)[C@@H](Cc3ccccc3)N=C(c3ccccc3)c3ccccc32)c1 too.
11.9 µM
